# System: Hsp90
# protocol-details: IC50 of compounds of the invention, Example B Method 2 (Tables 6-9)
# Format: cell-based, human
# details: Table 9; Her2 degradation / inhibition of Hsp90; Method 2: MV-4-11 cells, 72 hours, Cell Counting Kit-8; dihydrochloride; read-out: IC50 Range
Structures can show the parent of a compound that is named as a salt.
measured-quantity: pIC50
pIC50 here is simply -log10 of the concentration when that concentration is written in mol/L.

[[record]]
molecule = "CC(C)c1cc(-c2nnc(O)n2-c2ccc(N(C)C)nc2)c(O)cc1O [Compound 7d, dihydrochloride]"
numeric_value = 7.33


For the molecule shown here, CC(C)c1cc(-c2nnc(O)n2-c2ccc(N3CCN(C)CC3)nc2)c(O)cc1O [Compound 9d, dihydrochloride] , give the reported pIC50.
6.66

====

# Tested on: Hsp90
# protocol-details: IC50 of compounds of the invention, Example B Method 2 (Tables 6-9)
# Format: cell-based, human
# details: Table 8; Her2 degradation / inhibition of Hsp90; Method 2: MV-4-11 cells, 72 hours, Cell Counting Kit-8; read-out: IC50
pIC50: −log10 of the molar value.
measured-quantity: pIC50

[[record]]
compound = "COCCC(=O)n1ccc2cc(-n3c(O)nnc3-c3cc(C(C)C)c(O)cc3O)ccc21 [Compound 11b]"
system = "Hsp90"
measured_quantity = "pIC50"
result = "> 7.00"

[[record]]
compound = "CCc1cc(-c2nnc(S)n2-c2cccc3ccccc23)c(OC(=O)C(C)(C)C)cc1OC(=O)C(C)(C)C"
system = "Hsp90"
measured_quantity = "pIC50"
result = "< 5.70"

[[record]]
compound = "CCc1cc(-c2nnc(S)n2-c2cccc3ccccc23)c(OC(=O)c2ccccc2)cc1OC(=O)c1ccccc1"
system = "Hsp90"
measured_quantity = "pIC50"
result = "< 5.70"


For the compound shown here, CC(C)c1cc(-c2nnc(O)n2-c2ccc3c(ccn3C(=O)CCNC(=O)OC(C)(C)C)c2)c(O)cc1O [Compound 10b] , give the reported pIC50.
> 6.96

For the compound shown here, COCCC(=O)Oc1cc(O)c(-c2nnc(OC(=O)CCOC)n2-c2ccc3c(ccn3C)c2)cc1C(C)C [Compound 18b] , give the reported pIC50.
> 7.00

meta.source: patent US8835464B2
